target_of_assay: T1, human IL-12 (human, UniProt P29459 23-219; P29460 23-328)
T1 construct: recombinant human IL-12 heterodimer (p35/p40, disulfide-linked); also called hIL-12; rhIL-12
T1 sequence (looked up) 1: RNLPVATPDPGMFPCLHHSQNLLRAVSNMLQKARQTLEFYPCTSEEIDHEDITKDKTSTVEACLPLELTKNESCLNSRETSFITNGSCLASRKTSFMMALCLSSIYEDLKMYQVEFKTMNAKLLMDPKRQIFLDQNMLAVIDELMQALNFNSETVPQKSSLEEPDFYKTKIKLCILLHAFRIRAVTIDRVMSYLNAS
T1 sequence (looked up) 2: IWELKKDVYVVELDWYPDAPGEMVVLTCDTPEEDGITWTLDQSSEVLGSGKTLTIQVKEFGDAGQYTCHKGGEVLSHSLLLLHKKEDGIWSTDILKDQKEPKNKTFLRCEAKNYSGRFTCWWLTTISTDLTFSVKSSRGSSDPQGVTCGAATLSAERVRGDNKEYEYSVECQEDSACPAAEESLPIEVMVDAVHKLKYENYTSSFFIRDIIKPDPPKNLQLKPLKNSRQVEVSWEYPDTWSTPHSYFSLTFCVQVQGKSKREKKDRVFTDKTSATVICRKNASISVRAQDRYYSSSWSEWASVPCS
assay_text: SPR (BIAcore), IL-12 chip
Catalogue of koff values

binder: 170-11 (scFv, V domains shown, scFv) VH: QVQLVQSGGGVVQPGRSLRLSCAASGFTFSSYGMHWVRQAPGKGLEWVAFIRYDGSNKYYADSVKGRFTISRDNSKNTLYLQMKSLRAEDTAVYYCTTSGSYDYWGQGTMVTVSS VL: SYVLTQPPSVSGTPGQRVTISCSGGRSNIGSNTVKWYQQLPGTAPKLLIYGNDQRPSGVPDRFSGSKSGTSASLAITGVQAEDEADYYCQSYDRGLTGFRVFGTGTKVTVL
koff: 0.00044 s⁻¹

binder: 136-24 (scFv, V domains shown, scFv) VH: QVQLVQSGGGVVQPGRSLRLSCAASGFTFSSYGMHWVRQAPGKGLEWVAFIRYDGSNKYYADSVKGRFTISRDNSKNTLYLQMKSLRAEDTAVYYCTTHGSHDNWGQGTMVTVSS VL: SYVLTQPPSVSGTPGQRVTISCSGGRSNIGSNTVKWYQQLPGTAPKLLIYGNDQRPSGVPDRFSGSKSGTSASLAITGVQAEDEADYYCQSYDNAVTASKVFGTGTKVTVL
koff: 0.00089 s⁻¹

binder: C5 (scFv, V domains shown, scFv) VH: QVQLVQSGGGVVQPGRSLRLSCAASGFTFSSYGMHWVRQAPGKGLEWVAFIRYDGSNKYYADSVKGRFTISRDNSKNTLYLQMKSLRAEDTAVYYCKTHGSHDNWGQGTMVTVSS VL: SYVLTQPPSVSGTPGQRVTISCSGGRSNIGSNTVKWYQQLPGTAPKLLIYGNDQRPSGVPDRFSGSKSGTSASLAITGVQAEDEADYYCQSYDRGPHTQPTFGTGTKVTVL
koff: 0.00391 s⁻¹

binder: A12 (scFv, V domains shown, scFv) VH: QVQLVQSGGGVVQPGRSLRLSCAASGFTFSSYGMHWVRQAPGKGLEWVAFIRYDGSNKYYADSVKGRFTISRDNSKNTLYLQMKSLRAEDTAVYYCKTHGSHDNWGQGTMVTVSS VL: SYVLTQPPSVSGTPGQRVTISCSGGRSNIGSNTVKWYQQLPGTAPKLLIYGNDQRPSGVPDRFSGSKSGTSASLAITGVQAEDEADYYCQSYDRGTTPRPMFGTGTKVTVL
koff: 0.00143 s⁻¹

binder: C9 (scFv, V domains shown, scFv) VH: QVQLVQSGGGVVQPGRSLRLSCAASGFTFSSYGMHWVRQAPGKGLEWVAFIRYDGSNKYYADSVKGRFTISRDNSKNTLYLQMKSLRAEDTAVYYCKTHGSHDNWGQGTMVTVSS VL: SYVLTQPPSVSGTPGQRVTISCSGGRSNIGSNTVKWYQQLPGTAPKLLIYGNDQRPSGVPDRFSGSKSGTSASLAITGVQAEDEADYYCQSYDRGPTHLPHFGTGTKVTVL
koff: 0.00397 s⁻¹

These entries and their values trace back to patent US20150037348A1.
